All figures here come from ChEMBL document CHEMBL1126616.

- Study Target: Angiotensin-converting enzyme (Rattus norvegicus, UniProt P47820)
- Sequence (P47820 whole entry): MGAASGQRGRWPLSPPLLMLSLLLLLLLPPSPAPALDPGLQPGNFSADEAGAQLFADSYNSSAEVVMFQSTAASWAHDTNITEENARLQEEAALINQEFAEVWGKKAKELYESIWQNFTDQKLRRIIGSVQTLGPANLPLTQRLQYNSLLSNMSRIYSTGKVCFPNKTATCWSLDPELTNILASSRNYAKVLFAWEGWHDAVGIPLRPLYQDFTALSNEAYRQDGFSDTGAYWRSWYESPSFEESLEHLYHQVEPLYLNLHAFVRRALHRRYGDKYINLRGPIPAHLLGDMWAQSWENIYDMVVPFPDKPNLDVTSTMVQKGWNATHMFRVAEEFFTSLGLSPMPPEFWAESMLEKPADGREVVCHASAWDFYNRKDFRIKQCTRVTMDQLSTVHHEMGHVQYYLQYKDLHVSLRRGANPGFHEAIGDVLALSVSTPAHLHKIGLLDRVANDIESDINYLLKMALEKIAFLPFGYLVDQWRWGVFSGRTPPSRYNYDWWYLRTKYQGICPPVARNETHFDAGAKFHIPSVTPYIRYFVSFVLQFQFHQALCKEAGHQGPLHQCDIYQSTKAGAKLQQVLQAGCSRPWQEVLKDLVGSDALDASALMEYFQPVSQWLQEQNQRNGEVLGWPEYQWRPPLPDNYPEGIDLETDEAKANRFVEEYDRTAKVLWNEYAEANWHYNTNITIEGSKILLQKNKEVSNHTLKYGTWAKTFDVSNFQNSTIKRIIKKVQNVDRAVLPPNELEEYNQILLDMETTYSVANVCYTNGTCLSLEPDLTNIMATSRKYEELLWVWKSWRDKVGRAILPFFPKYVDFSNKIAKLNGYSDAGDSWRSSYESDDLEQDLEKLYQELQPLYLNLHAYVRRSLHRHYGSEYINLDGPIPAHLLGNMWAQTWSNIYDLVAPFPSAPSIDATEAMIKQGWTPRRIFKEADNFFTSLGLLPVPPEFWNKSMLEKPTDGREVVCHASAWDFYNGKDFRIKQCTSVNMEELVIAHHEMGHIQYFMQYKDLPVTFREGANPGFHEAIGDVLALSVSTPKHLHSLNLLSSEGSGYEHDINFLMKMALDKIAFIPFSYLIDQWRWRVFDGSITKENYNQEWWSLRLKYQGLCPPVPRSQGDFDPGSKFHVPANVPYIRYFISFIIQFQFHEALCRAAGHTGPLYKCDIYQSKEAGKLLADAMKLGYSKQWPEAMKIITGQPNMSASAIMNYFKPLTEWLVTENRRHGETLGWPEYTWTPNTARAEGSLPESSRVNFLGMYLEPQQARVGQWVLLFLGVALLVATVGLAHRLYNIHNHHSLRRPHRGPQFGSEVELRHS
- Assay Notes: In vitro inhibitory activity against rat serum angiotensin I converting enzyme using hippuryl-glycyl-glycine as substrate
Recorded pIC50 values for a group of molecules are listed next.
pIC50 field: float, defined as -log10 of concentration (mol/L).

Example cases with answers are listed next.
Molecule: O=C(O)C1CCCC1C(=O)NCCS (stereo not given)
Recorded Metric: pIC50
Measured Number: 4.96
//
Molecule: CCN(CC(=O)NO)C(=O)C1CCCCC1C(=O)O (stereo in doubt; 21d)
Recorded Metric: pIC50
Measured Number: 5.54

# input Data request, read-out pIC50, for CCN(CC(=O)NO)C(=O)C1CCCCC1C(=O)O (stereo in doubt; 21c)
# output 7.55
